All figures here come from paper PMC5540273.

%Inh overview
Test system: GRK3
Construct: gene ADRBK2
Details: concentration: 1 μM, replicates: in singlicate; n = 1;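 note: KINOMEscan kinase panel screen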
// units = %; emit number, no label

- molecule: "Nc1nc(N)c2nc(-c3ccccc3)[nH]c2n1 [SKF-12778]"
  %Inh, %: 9
- molecule: "COc1cc2ncn(-c3cc(OCCCc4ccccc4)c(C(N)=O)s3)c2cc1OC [GSK205189]"
  %Inh, %: 0
- molecule: "COc1cc2ncn(-c3cc(OCc4ccc(S(C)(=O)=O)cc4)c(C(N)=O)s3)c2cc1OC [GW869979]"
  %Inh, %: 0
- molecule: "Cc1ccc(Oc2ccc(Nc3ncnc4cc[nH]c34)cc2C)cn1"
  %Inh, %: 28

Now turn to the next molecule.
Input line: In one line, give reported %Inh of the entry COc1ccc(-c2coc3ccc(-c4nnc(SCc5cccc(C#N)c5)o4)cc23)cc1 .
Output line: 0

---

Tested on: CLK3
Conditions: concentration: 1 μM, replicates: in singlicate; n = 1
Listed below: %Inh values for each entry.
Respond numerically; units are % and should not be typed.

// known answers, use as guide
- compound: "O=C(Nc1n[nH]c2nc(-c3ccccc3)c(Br)cc12)C1CC1"
  %Inh, %: 0
- compound: "Cc1ccccc1COc1cc(-n2cnc3cc(Cl)ccc32)sc1C(N)=O"
  %Inh, %: 0
- compound: "COC(=O)c1c(-c2ccccc2)c2cc(Br)ccc2c(=O)n1Cc1ccc(NC(=O)CCC(=O)O)cc1"
  %Inh, %: 0
- compound: "Nc1ncnc2c1ncn2-c1cccc(F)c1"
  %Inh, %: 0
- compound: "CCc1nc(-c2cccc(C)c2)c(-c2ccncc2)s1"
  %Inh, %: 0
- compound: "CCc1ccc(-c2ccc3c(c2)-c2nn(C)cc2S(=O)(=O)N3C)cc1"
  %Inh, %: 0

Input line: Respond only with %Inh recorded for CCC(=O)c1c(-c2ccccc2)c2cc(Cl)ccc2c(=O)n1Cc1cc(C(=O)NC2CC2)n(C)n1
Output line: 0

Input line: Determine from records and report %Inh for COC(=O)c1c(-c2ccccc2)c2cc(Br)ccc2c(=O)n1Cc1ccc(S(C)(=O)=O)cc1
Output line: 0

Input line: Provide only the value of recorded %Inh for COc1ccc(Nc2nccc(N3CCC(NS(=O)(=O)c4ccc(NC(C)=O)cc4)C3)n2)cc1 (stereo not drawn)
Output line: 0

---

Tested on: PRKD3
Conditions: concentration: 1 μM, replicates: in singlicate; n = 1
# %Inh annotations
State just the number; it will be interpreted in %.

Consider the following illustrative entries.
- molecule: "COC(=O)c1c(-c2ccccc2)c2cc(C)ccc2c(=O)n1Cc1ccccc1"
  experimental-endpoint: "%Inh"
  value-units: "%"
  readout-number: 0
- molecule: "Cc1nc(N(C)[C@H]2CN(C(=O)CC#N)CC[C@H]2C)c2cc[nH]c2n1"
  experimental-endpoint: "%Inh"
  value-units: "%"
  readout-number: 66
- molecule: "Cc1nn2c(=O)cc(N3CCOCC3)nc2n1Cc1cccc(Cl)c1Cl [GSK2342769]"
  experimental-endpoint: "%Inh"
  value-units: "%"
  readout-number: 16
- molecule: "CCCC(=O)Nc1n[nH]c2ncc(-c3cccc4ccccc34)cc12 [SB-642057]"
  experimental-endpoint: "%Inh"
  value-units: "%"
  readout-number: 0
- molecule: "CCc1ccc(-c2ccc3c(c2)-c2nn(C)cc2S(=O)(=O)N3C)cc1"
  experimental-endpoint: "%Inh"
  value-units: "%"
  readout-number: 0

Input line: Please supply the value of reported %Inh for the item COc1cc(OC)cc(-c2cc3cnc(N)nc3nc2NC(=O)NC(C)(C)C)c1
Output line: 0

Input line: For the molecule COc1cc(Nc2ccnc3ccc(C(F)(F)F)cc23)cc(OC)c1OC [GW577382] , give its measured %Inh value.
Output line: 0

Input line: Using the record for COc1ccc(CNC(=O)NC2CCN(c3ccnc(Nc4ccc(F)cc4)n3)C2)cc1 (stereo not drawn) [GSK1379706] , state its measured %Inh.
Output line: 15

Input line: Answer with the recorded %Inh of Cc1ccc(Oc2ccc(Nc3ncnc4cc[nH]c34)cc2C)cn1 only.
Output line: 8

---

Tested on: EGFR
Conditions: concentration: 1 μM, replicates: in singlicate; n = 1
experimental-endpoint: %Inh (%)
Hi! Could you send only the number? It should be in %, unit omitted.

Illustrative cases are given below, each with its answer.
- molecule: "FC(F)(F)c1ccc(-c2ncn(CCCN3CCOCC3)c2-c2ccncc2)cc1 [SB-217780]"
  %Inh / %: 19
- molecule: "COc1cc2ncn(-c3cc(OCCCc4ccccc4)c(C(N)=O)s3)c2cc1OC [GSK205189]"
  %Inh / %: 15
- molecule: "CN1C(=O)C(Nc2ccccc2)=C(c2ccccc2)C1=O [SB-300079]"
  %Inh / %: 16
- molecule: "Nc1nccc2scc(-c3ccc4c(c3)CCN4C(=O)Cc3ccccc3)c12 [GSK2576924]"
  %Inh / %: 21
- molecule: "CCC(=O)c1c(-c2ccccc2)c2cc(Cl)ccc2c(=O)n1Cc1cc(C(=O)NC2CC2)n(C)n1"
  %Inh / %: 0
- molecule: "COC(=O)c1c(-c2ccccc2)c2cc(Br)ccc2c(=O)n1Cc1ccc(S(C)(=O)=O)cc1"
  %Inh / %: 5
- molecule: "O=C(NCCNc1ccnc(Nc2ccc(F)cc2)n1)Nc1ccc2c(c1)OCO2 [GSK1379882]"
  %Inh / %: 0
- molecule: "COc1cc(Nc2ccnc3ccc(C(F)(F)F)cc23)cc(OC)c1OC [GW577382]"
  %Inh / %: 27
- molecule: "COc1ccc(-n2cnc3c(N)ncnc32)cc1 [SKF-97236]"
  %Inh / %: 0
- molecule: "CCC(=O)c1c(-c2ccccc2)c2cc(Cl)ccc2c(=O)n1Cc1cc(S(C)(=O)=O)n(CC(N)=O)n1"
  %Inh / %: 0

Proceed to the following item.
Input line: Please look at O=C1NC(=O)C(c2ccccc2)=C1Nc1cccc(O)c1 [SB-390534] and tell me its recorded %Inh on EGFR.
Output line: 7

---

Test system: BMPR1A
Details: concentration: 1 μM, replicates: in singlicate; n = 1
experimental-endpoint: %Inh (%)
Give the value in % but do not write % after it.

Below are worked cases with known answers.
- compound: "CCCC(=O)Nc1n[nH]c2ncc(-c3cccc4ccccc34)cc12 [SB-642057]"
  readout-number: 12
- compound: "COc1ccc(CNC(=O)NC2CCN(c3ccnc(Nc4ccc(F)cc4)n3)C2)cc1 (stereo not drawn) [GSK1379706]"
  readout-number: 6
- compound: "C[C@@H]1CC[C@H](C(=O)NC2CCCCC2)CN1c1cc(-c2ccc3c(N)n[nH]c3c2)nc(N)n1 [GSK2291363]"
  readout-number: 0
- compound: "Cl.NS(=O)(=O)c1cccc(Nc2cc(-c3ccc(F)cc3)n[nH]2)c1 [GW824645]"
  readout-number: 7
- compound: "CCc1nc(-c2cccc(C)c2)c(-c2ccncc2)s1"
  readout-number: 0
- compound: "CN1C(=O)C(Nc2cc(Cl)c(O)c(Cl)c2)=C(c2ccc(Cl)cc2)C1=O [SB-404321]"
  readout-number: 0
- compound: "Cc1ccccc1COc1cc(-n2cnc3cc(Cl)ccc32)sc1C(N)=O [GW813349]"
  readout-number: 0
- compound: "COc1cc(Nc2nccc(N3CCC(NC(=O)C4COc5ccccc5O4)C3)n2)cc(OC)c1OC (stereo not drawn) [GSK1379761]"
  readout-number: 0

Field: next compound
Input line: Identify measured %Inh corresponding to OCCCNc1nccc(-c2c(-c3cccc(C(F)(F)F)c3)nn3cc(C(F)(F)F)ccc23)n1 [GW630813]
Output line: 0

---

System: YSK1
Construct: gene STK25
Conditions: concentration: 1 μM, replicates: in singlicate; n = 1
Quick reference: %Inh of the listed items.
Express it in %; write the number only.

Input line: Determine from records and report %Inh for CCC(=O)c1c(-c2ccccc2)c2cc(Cl)ccc2c(=O)n1Cc1cc(S(C)(=O)=O)n(CC(N)=O)n1
Output line: 0

Input line: Please report the measured %Inh for COc1cc2ncn(-c3cc(OCc4ccc(S(C)(=O)=O)cc4)c(C(N)=O)s3)c2cc1OC
Output line: 0

Input line: Note %Inh for the compound shown: Cc1cccc(-c2cc(-c3c[nH]nc3-c3ccccn3)ccn2)c1
Output line: 0

Input line: Output measured %Inh for this item: CCC(=O)c1c(-c2ccccc2)c2cc(Cl)ccc2c(=O)n1Cc1ccc(C(=O)O)cc1
Output line: 0

Input line: Look up and state reported %Inh for Nc1nc(N)c2nc(-c3ccccc3)[nH]c2n1
Output line: 0

---

# %Inh per entry
System: CDK7
Details: concentration: 1 μM, replicates: in singlicate; n = 1
Numeric answer only, unit % assumed.

- compound: "CN1C(=O)C(Nc2cc(Cl)c(O)c(Cl)c2)=C(c2ccc(Cl)cc2)C1=O [SB-404321]"
  %Inh (%): 0
- compound: "COc1ccc(-c2coc3ccc(-c4nnc(SCc5cccc(C#N)c5)o4)cc23)cc1"
  %Inh (%): 9
- compound: "COc1cccc(C2=C(Nc3cccc(C(=O)O)c3)C(=O)NC2=O)c1 [SB-390770]"
  %Inh (%): 0
- compound: "Nc1nccc2scc(-c3ccc4c(c3)CCN4C(=O)Cc3ccccc3)c12 [GSK2576924]"
  %Inh (%): 7

Input line: Query %Inh for FC(F)(F)c1ccc(-c2ncn(CCCN3CCOCC3)c2-c2ccncc2)cc1 [SB-217780]
Output line: 9

Input line: Return %Inh for the following compound: COc1cccc(-n2cnc3c(N)ncnc32)c1 [SKF-97416]
Output line: 33

Input line: Provide only the value of recorded %Inh for CCC(=O)c1c(-c2ccccc2)c2cc(Cl)ccc2c(=O)n1Cc1cc(S(C)(=O)=O)n(CCC(C)(C)O)n1
Output line: 38

Input line: Quick one: give measured %Inh for COc1cc2ncn(-c3cc(OCc4ccc(S(C)(=O)=O)cc4)c(C(N)=O)s3)c2cc1OC [GW869979]
Output line: 0

Input line: Output measured %Inh for this item: CCc1nc(-c2cccc(C)c2)c(-c2ccncc2)s1
Output line: 0

Input line: Specify reported %Inh for the compound shown: Nc1n[nH]c2ncc(-c3ccccc3)cc12 [SB-517081]
Output line: 0

Input line: Item Cl.c1ccc(Cn2cnc3cc(Nc4ncnc5ccccc45)ccc32)cc1 [GW272142] : provide %Inh
Output line: 0
